Tested on: 565232-114-T-J1-PDC complex spheroid viability;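 note: spheroids exposed to compounds for 7 days before readout; 100% = DMSO vehicle wells with luminescence normalized to vehicle control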
Test: Anticancer human tumor 565232-114-T-J1-PDC patient-derived bladder carcinoma cell line growth inhibition [CLK]
Conditions: second compound 0.1 µM; first compound 0.0316 µM; hits give low values
recorded-metric: viability, T/C (%)
Number only, in %; omit the unit.

Examples from the recorded data:
{"columns": ["compound", "viability, T/C [%]"],
 "data": [
  ["Nc1ccn(C2OC(CO)C(O)C2(F)F)c(=O)n1 (stereo not drawn) + CNC(=O)c1ccc(Nc2nc(OC3CCCC3)c3c(-c4ccc5nc(C)oc5c4)c[nH]c3n2)c(OC)c1", 35.7],
  ["COc1ccc([C@@H](O)c2cc(-c3ncnc4cc(N5CCOCC5)ccc34)c(F)cc2Cl)nn1 + CNC(=O)c1ccc(Nc2nc(OC3CCCC3)c3c(-c4ccc5nc(C)oc5c4)c[nH]c3n2)c(OC)c1", 47]
]}

Next compound, please.
Answer with the recorded viability, T/C of CCc1c2c(nc3ccc(O)cc13)-c1cc3c(c(=O)n1C2)COC(=O)[C@]3(O)CC + CNC(=O)c1ccc(Nc2nc(OC3CCCC3)c3c(-c4ccc5nc(C)oc5c4)c[nH]c3n2)c(OC)c1 only. 12.2
